As shown below, each of these molecules has a reported melting point value.

Worked set:
# molecule, reported_value
records = [
    ("OCC1(n2nc3ccccc3n2)OCC1c1ccccc1 (centres undefined)", "119 to 123 °C"),
    ("CC(C)CCNc1nc(-c2ccccc2)c(-c2ccnc(Nc3ccccc3)n2)s1", "170 to 172 °C"),
    ("O=C(O)c1ccc(-c2nc(-c3cccnc3)cs2)cc1", "303 to 304 °C"),
]

Q) Consider the molecule CNC(=O)c1ccc(N2CCN(Cc3cnc4c(c3)[nH]c(=O)n3cccc43)CC2)c(Cl)c1 and give its measured melting point.
A) 260 to 266 °C

Q) Consider the molecule CC(C)c1n[nH]c2c(O)ncnc12 and give its measured melting point.
A) 302 to 304 °C

Q) Consider the molecule CN1C(=N)C(=O)c2ccccc21 and give its measured melting point.
A) 99 to 102 °C

Q) Consider the molecule CC(C)[C@@H](NS(=O)(=O)c1ccc2ccccc2c1)C(=O)O and give its measured melting point.
A) 170 to 172 °C

Q) Consider the molecule O=C(C(=O)N1CCN(c2cccc3[nH]ccc23)CC1)c1c[nH]c2cc(Cl)ccc12 and give its measured melting point.
A) 229 to 231 °C

Q) Consider the molecule CCCCCN1C(=O)C(CCC(=O)O)(NC(=O)c2ccc(Cl)c(Cl)c2)c2ccccc21 (centres undefined) and give its measured melting point.
A) 202 to 204 °C

Q) Consider the molecule CC(=O)OCC1OC(n2cc(C(Br)=CI)c(=O)[nH]c2=O)CC1OC(C)=O (centres undefined) and give its measured melting point.
A) 82 to 84 °C

Q) Consider the molecule Cc1nc2c3c(ccn2c1C)[C@@H](OCC(F)(F)F)[C@H](O)[C@@H](c1ccccc1)N3 and give its measured melting point.
A) 178 to 180 °C

Q) Consider the molecule CC(C)=CCCC(C)=CCOc1ccc(OCC=C(C)CCC=C(C)C)c(C(=O)NCCc2ccncc2)c1 and give its measured melting point.
A) 59.1 to 60.6 °C

Q) Consider the molecule N#Cc1ccnc(Oc2ccc(CCNc3ncnc4scnc34)cc2)c1 and give its measured melting point.
A) 145 to 148 °C

Q) Consider the molecule COc1ccc(C=C2CS(=O)(=O)CC3=C2N=C2SCCN2C3c2ccc(OC)cc2)cc1 (centres undefined) and give its measured melting point.
A) 235 to 240 °C

###

As shown below, each of these compounds has a reported melting point value.

Worked set:
# compound, reported_value
rows = [
    ("Cc1cc(SC(C)C)c(NC(=O)CCCSc2nc3ccccc3o2)c(SC(C)C)n1", "128 to 129 °C"),
    ("CCOC(=O)c1cc(CBr)cc(C(=O)OCC)c1", "111 to 113 °C"),
    ("Cc1nn(C)c2cc(-c3ccc4nnn(Cc5ccc6ncccc6c5)c4n3)ccc12", "159 to 163 °C"),
    ("CCOC(=O)c1cn(CC(F)(F)F)c2c(C)cc(F)cc2c1=O", "154 to 158 °C"),
]

Q) Consider the compound Cc1c(C)c2c(c(C)c1Br)C(c1ccc(C(C)C)cc1)CO2 (stereo not drawn) and give its measured melting point.
A) 86 to 87 °C

Q) Consider the compound Cc1cccc(NC(=O)c2cc([N+](=O)[O-])ccc2NC(=O)CF)c1C and give its measured melting point.
A) 236 to 239 °C

Q) Consider the compound CCOP(=O)(CCN1CCC(N(CCCN)S(=O)(=O)c2ccc(Nc3nccc(Nc4ccc(F)cc4)n3)cc2)CC1)OCC and give its measured melting point.
A) 125 to 130 °C

Q) Consider the compound CCCCn1c(=O)n(CCC)c(=O)c2c3n(nc21)CCCCN3C and give its measured melting point.
A) 63 to 65 °C

Q) Consider the compound CCc1cccc(C(C)C)c1NC(=O)NCC1(c2ccccc2)CCCCC1 and give its measured melting point.
A) 178 to 180 °C

Q) Consider the compound CCc1nnc(-c2cccc([N+](=O)[O-])c2)n1-c1ccc(OC)cc1 and give its measured melting point.
A) 126 °C

Q) Consider the compound CC(=O)Nc1nc2c(Oc3cc(-c4ccc(C(F)(F)F)cc4)nc(N4CCN(C(=O)OC(C)(C)C)CC4)n3)cccc2s1 and give its measured melting point.
A) 211 °C
